MEASUREMENT LABEL: melting point

Take a look at these entries with their results.
COMPOUND: COc1ccc(NS(=O)(=O)c2ccc(-c3ccc(OC(F)(F)F)cc3)cc2)cc1OC [Compound D1]
melting point: 145 to 146 °C

COMPOUND: Cc1cc(C)c(NS(=O)(=O)c2ccc(NCCN3C(=O)c4cccc5c(N(C)C)ccc(c45)C3=O)cc2)c(C)c1 [Compound N1]
melting point: 230 to 231 °C

COMPOUND: Cc1cc(C)c(NS(=O)(=O)c2ccc(-c3ccccc3)cc2)c(C)c1 [Compound B1, N-Mesityl-[1,1′-biphenyl]-4-sulfonamide]
melting point: 165 to 166 °C

Now, please, on to the next compound.
Q: Which value of melting point has been reported for O=S(=O)(Nc1ccc(Oc2ccccc2)cc1)c1ccc(-c2ccc(OC(F)(F)F)cc2)cc1 [Compound D4] in the records?
A: 144 to 145 °C

meta.source: paper PMC8841740
